# Test system: Tov-21-G
# Protocol details: Primary qHTS to identify gynecologic anti-cancer compounds using libraries of approved drugs and bioactive compounds (AID 1345084); further: on the % scale 0 is the no-effect control and ±100 the full control effect; nearly all actives have a fitted effect of over 55% in size
# Condition notes: Gynecologic cancer cell panel viability, ATPlite luminescence, 48 h; series mostly up to 57.5 µM
Records with an inconclusive call do not appear. Activity calls are given as the source filed them. The call rests on the fitted dose curve; in most records, active means well fitted cell-killing curve with a large enough effect; inconclusive means small, poorly fitted or top-dose-only effect, or effect the other way; inactive means flat fitted curve, though single readings scatter.
Assay metric: activity change, negative = cytotoxicity

Some compounds with known activity change, negative = cytotoxicity results, for comparison:
[
  {
    "Compound": "N[C@H](C(=O)O)c1ccc(O)cc1",
    "Tgt": "Tov-21-G",
    "activity change, negative = cytotoxicity": "inactive"
  },
  {
    "Compound": "CC(C)c1c(C(=O)Nc2ccccc2)c(-c2ccccc2)c(-c2ccc(F)cc2)n1CC[C@@H](O)C[C@@H](O)CC(=O)O",
    "Tgt": "Tov-21-G",
    "activity change, negative = cytotoxicity": "inactive"
  },
  {
    "Compound": "CC1=C(CC(=O)O)c2cc(F)ccc2/C1=C\\c1ccc(S(C)=O)cc1 (stereo unspecified)",
    "Tgt": "Tov-21-G",
    "activity change, negative = cytotoxicity": "inactive"
  },
  {
    "Compound": "O=C1c2c(O)cccc2Cc2cccc(O)c21",
    "Tgt": "Tov-21-G",
    "activity change, negative = cytotoxicity": "inactive"
  },
  {
    "Compound": "O=Cc1ccccc1C=O",
    "Tgt": "Tov-21-G",
    "activity change, negative = cytotoxicity": "inactive"
  },
  {
    "Compound": "CCOc1ccc2ccccc2c1C(=O)N[C@@H]1C(=O)N2[C@@H]1SC(C)(C)[C@@H]2C(=O)O",
    "Tgt": "Tov-21-G",
    "activity change, negative = cytotoxicity": "inactive"
  },
  {
    "Compound": "C[C@]12C[C@H](O)[C@H]3[C@@H](CCC4=CC(=O)CC[C@@]43C)[C@@H]1CC[C@@H]2C(=O)CO",
    "Tgt": "Tov-21-G",
    "activity change, negative = cytotoxicity": "inactive"
  },
  {
    "Compound": "CC(=O)Oc1c(C)c(C)c2c(c1C)CC[C@@](C)(CCC[C@H](C)CCC[C@H](C)CCCC(C)C)O2",
    "Tgt": "Tov-21-G",
    "activity change, negative = cytotoxicity": "inactive"
  }
]

Any idea what its activity change, negative = cytotoxicity is? The compound is "c1ccc2c(CC3=NCCN3)cccc2c1" inactive

Okay, and "CC(C)(C)C(=O)NCCCC(=O)O" ? inactive

Okay, and "CCC(=O)c1ccc(O)cc1" ? inactive

Okay, and CN1[C@@H]2CC(OC(=O)[C@H](CO)c3ccccc3)C[C@H]1[C@@H]1O[C@@H]12 (stereo partly specified) ? inactive

Okay, and "OCC(CO)N[C@H]1C[C@](O)(CO)[C@@H](O)[C@H](O)[C@H]1O" ? inactive

Okay, and "NCCNCCNCCNCCN" ? -0.438% [at 11.6 µM] (inactive)

Okay, and "O=C1O[C@H](CO)[C@@H](O)[C@H](O)[C@H]1O" ? inactive

Okay, and "O=C(O)Cc1sc(-c2ccccc2)nc1-c1ccc(Cl)cc1" ? inactive

Okay, and "O=C1NC(=O)[C@@]2(CCOc3ccc(F)cc32)N1" ? inactive

Okay, and "[O-][n+]1cccc(CO)c1" ? inactive

Okay, and "C[C@@H](O)[C@H](N)C(=O)O" ? inactive

Okay, and "CCN(CC)CCNC(=O)c1cc(Cl)c(N)cc1OC" ? inactive

Okay, and "O=C(O)c1ccccc1O" ? inactive

* * *

# System: CP252
# Protocol details: qHTS profiling for inhibitors of Plasmodium falciparum proliferation (AID 504749);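 further: 0% = DMSO vehicle and full inhibition = artemisinin control; nearly all actives have a fitted effect of over 60% in size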
# Condition notes: P. falciparum in erythrocytes, SYBR Green DNA, 72 h; series mostly up to 28.7 µM
Results filed as inconclusive are left out. Activity calls are given as the source filed them. The call rests on the fitted dose curve; in most records, active means well fitted inhibition curve with a large enough effect; inconclusive means small, poorly fitted or top-dose-only effect; inactive means flat fitted curve, though single readings scatter.

[
  {
    "Molecule": "CC(=O)Oc1ccc(C2(c3ccc(OC(C)=O)cc3)C(=O)Nc3ccccc32)cc1",
    "Tgt": "CP252",
    "outcome": "inactive"
  },
  {
    "Molecule": "CCCCCCCCCCCCCCCCCCOCC(O)CO (stereo not drawn)",
    "Tgt": "CP252",
    "outcome": "inactive"
  },
  {
    "Molecule": "CCOC(CN1CCN(CC(C)C(=O)c2ccccc2)CC1)c1ccccc1 (stereo not drawn)",
    "Tgt": "CP252",
    "outcome": "inactive"
  }
]

* * *

# Protocol details: P-glycoprotein substrates identified in KB-8-5-11 adenocarcinoma cell line, qHTS therapeutic library screen (AID 1346987); further: on the % scale 0 is the no-effect control and ±100 the full control effect; nearly all actives have a fitted effect of over 65% in size
# Condition notes: KB-8-5-11 (P-gp overexpressing) viability, CellTiter-Glo, 72 h; series mostly up to 44.5 µM
Inconclusive results are not listed. The source made the active and inactive calls. The call rests on the fitted dose curve; in most records, active means well fitted inhibition curve with a large enough effect; inconclusive means small, poorly fitted or top-dose-only effect; inactive means flat fitted curve, though single readings scatter.
# valid calls are 1.0 (active), 0.0 (inactive); nothing else

Please review the entries below; each comes with its answer.
[
  {
    "Molecule": "CC(C)(C)C(=O)C(Oc1ccc(Cl)cc1)n1ccnc1 (configuration not stated)",
    "Class name": 0.0
  },
  {
    "Molecule": "O=C(Oc1ccccc1C(=O)O)c1ccccc1O",
    "Class name": 0.0
  },
  {
    "Molecule": "N[C@@H](CSCCCO)C(=O)O",
    "Class name": 0.0
  }
]

Returns: the outcome recorded for "O=c1cc[nH]c(=O)[nH]1" in this assay. 0.0

Okay, and "CC[C@@]1(c2ccccc2)NC(=O)N(C)C1=O" ? 0.0

Okay, and OCc1cc(C(O)CNCCCCCCOCCCCc2ccccc2)ccc1O (configuration not stated) ? 0.0

Okay, and "CCOc1nc2cccc(C(=O)O)c2n1Cc1ccc(-c2ccccc2-c2nn[nH]n2)cc1" ? 0.0

Okay, and "[Cl][In]([Cl])[Cl]" ? 0.0

* * *

# Tgt: Chromobox protein homolog 1 (Homo sapiens)
# Protocol details: qHTS Validation Assay for Inhibitors of HP1-beta Chromodomain Interactions with Methylated Histone Tails (AID 488953); further: nearly all actives have a fitted effect of over 50% in size
# Condition notes: HP1-beta chromodomain / methylated histone peptide binding assay; series mostly up to 114 µM
Results filed as inconclusive are left out. The source made the active and inactive calls. Calls come from the whole dose curve; as a rule, active = well fitted inhibition curve with a large enough effect; inconclusive = small, poorly fitted or top-dose-only effect; inactive = no such curve, though single readings can be large or run the other way.
# valid calls are active, inactive; nothing else

[
  {
    "Molecule": "CN(C)CC[C@@H](c1ccc(Cl)cc1)c1ccccn1",
    "Class name": "inactive"
  },
  {
    "Molecule": "CN(C)CCOC(C)(c1ccccc1)c1ccccn1 (centres undefined)",
    "Class name": "inactive"
  },
  {
    "Molecule": "CCCn1cnc2c1c(=O)n(CCCCC(C)=O)c(=O)n2C",
    "Class name": "inactive"
  },
  {
    "Molecule": "CC(C)(C(=O)O)c1ccc(C(O)CCCN2CCC(C(O)(c3ccccc3)c3ccccc3)CC2)cc1 (centres undefined)",
    "Class name": "inactive"
  },
  {
    "Molecule": "CC(C)(C)c1onc(OCP(=O)(O)O)c1CC(N)C(=O)O (centres undefined)",
    "Class name": "inactive"
  },
  {
    "Molecule": "CCN(CC)CCOC(=O)C1(C2CCCCC2)CCCCC1",
    "Class name": "inactive"
  },
  {
    "Molecule": "NC1CCN(c2cccc(Cl)n2)CC1",
    "Class name": "inactive"
  },
  {
    "Molecule": "C#CCN(C)Cc1ccccc1",
    "Class name": "inactive"
  }
]

Moving on to another molecule below.
Returns: the outcome recorded for "OCCN1CCN(CCCN2c3ccccc3Sc3ccc(Cl)cc32)CC1" in this assay. active

* * *

# Protocol details: qHTS of pediatric cancer cell lines to identify multiple opportunities for drug repurposing: Primary screen for Rh18 cells (AID 1347102); further: nearly all actives have a fitted effect of over 65% in size
# Condition notes: Rh18 rhabdomyosarcoma viability, CellTiter-Glo luminescence, 48 h; series mostly up to 46 µM
Results filed as inconclusive are left out. Calls of active or inactive are those of the source. Calls come from the whole dose curve; as a rule, active = well fitted cell-killing curve with a large enough effect; inconclusive = small, poorly fitted or top-dose-only effect; inactive = flat fitted curve, though single readings scatter.
# valid calls are T for active, F for inactive; nothing else

Please review the entries below; each comes with its answer.
[
  {
    "Compound": "COC(=O)[C@H]1[C@H]2C[C@@H]3c4[nH]c5cc(OC)ccc5c4CCN3C[C@H]2C[C@@H](OC(=O)COc2ccc(OC)cc2)[C@@H]1OC",
    "Class name": "F"
  },
  {
    "Compound": "CN1[C@@H]2CC(OC(=O)[C@H](CO)c3ccccc3)C[C@H]1[C@@H]1O[C@@H]12 (stereo partly specified)",
    "Class name": "F"
  }
]

Returns: the outcome recorded for "CN(C)CC[C@@H](c1ccc(Cl)cc1)c1ccccn1" in this assay. F

Okay, and "Cc1cc2c(cc1S(N)(=O)=O)S(=O)(=O)CCC2" ? F

Okay, and CC(O)CN(CCN(CC(C)O)CC(C)O)CC(C)O (stereo unspecified) ? F

Okay, and "Nc1ccc(S(=O)(=O)NC(=O)c2ccccc2)cc1" ? F

Okay, and CSc1ccc2c(c1)N(CCC1CCCCN1C)c1ccccc1S2 (stereo unspecified) ? T
